- testedTarget: Sko1 (UniProt Q02100)
- Sequence: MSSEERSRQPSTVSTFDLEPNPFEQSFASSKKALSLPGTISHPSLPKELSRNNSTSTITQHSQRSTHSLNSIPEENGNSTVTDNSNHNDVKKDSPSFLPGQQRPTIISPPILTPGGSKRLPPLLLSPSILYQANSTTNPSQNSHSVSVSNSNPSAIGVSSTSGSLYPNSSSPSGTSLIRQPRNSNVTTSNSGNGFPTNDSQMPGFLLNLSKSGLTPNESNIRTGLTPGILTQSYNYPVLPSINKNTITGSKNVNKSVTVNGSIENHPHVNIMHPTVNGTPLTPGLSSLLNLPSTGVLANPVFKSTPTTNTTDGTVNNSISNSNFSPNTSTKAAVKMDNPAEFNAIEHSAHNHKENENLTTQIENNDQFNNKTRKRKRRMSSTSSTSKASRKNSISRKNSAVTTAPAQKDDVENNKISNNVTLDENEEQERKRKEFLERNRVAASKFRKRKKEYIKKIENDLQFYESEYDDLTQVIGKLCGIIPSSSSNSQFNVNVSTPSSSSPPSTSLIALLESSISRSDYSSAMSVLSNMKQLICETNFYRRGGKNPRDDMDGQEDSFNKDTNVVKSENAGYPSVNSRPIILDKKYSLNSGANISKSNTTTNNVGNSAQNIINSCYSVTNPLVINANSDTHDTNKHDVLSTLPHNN
- testProtocol: PBM E-score (8-mer binding enrichment) (E-score (-0.5 to 0.5)); higher = stronger / more preferred TF binding
- assayConditions: protein concentration: 200 nM; construct: GST-full length
In all, about 33,000 sequences were measured (“E-score (-0.5 to 0.5)”: median about -0.032, highest 2% from about 0.36 on). The entries come from a sample that favours the highest values as a whole.
valueKind: PBM E-score
Answer field: number only, no words.

INPUT: I am curious: what PBM E-score value has been reported for `CGTGTGGA` ?
OUTPUT: 0.00704

INPUT: Find the recorded PBM E-score belonging to `AAGATGAC` and report it.
OUTPUT: 0.337

INPUT: Sample `ATGCGCCA` — what was its PBM E-score?
OUTPUT: -0.00554

INPUT: Please give the measured PBM E-score for this sequence: `ACGTGGTA`
OUTPUT: 0.391

INPUT: Item under review: `ATACATCG` . Reported PBM E-score?
OUTPUT: 0.196
